Sequence of the target: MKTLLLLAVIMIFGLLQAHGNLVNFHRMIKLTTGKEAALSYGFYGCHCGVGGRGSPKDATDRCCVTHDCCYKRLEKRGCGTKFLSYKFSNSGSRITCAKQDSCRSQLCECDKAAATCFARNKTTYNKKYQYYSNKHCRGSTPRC
test readout: IC50 (µM)
Give bare numbers, in µM.

Some solved entries appear below for comparison.
| compound | IC50 (µM) |
| --- | --- |
| O=C(COc1ccc2ccccc2c1)N/N=C/c1cccc(OC(=O)c2cc([NH+]([O-])O)cc([NH+]([O-])O)c2)c1 (centres undefined) | 12.2 |
| O=C(N[C@@H](Cc1ccc([NH+]([O-])O)cc1)C(=O)O)OCC1c2ccccc2-c2ccccc21 (some centres undefined) | 21.4 |
| O=C(CCc1ccccc1)CC[C@H](NC(=O)OCC1c2ccccc2-c2ccccc21)C(=O)O | 34.5 |

**Query** Write down IC50 measured for item O=C(COc1ccc(/C=N/NC(=O)c2ccccc2[NH+]([O-])O)cc1)Nc1cccc([NH+]([O-])O)c1 (centres undefined)
**Result** 9
